Molecular target: 15-PGDH (Homo sapiens, UniProt P15428)
Construct: purchased Sino Biological Inc. 11205-H08E
Assay: Detection of Activity of 15-PGDH Kinase (inhibition of 15-PGDH enzyme)
Type: biochemical
Conditions: class symbols; substrates β-NAD and PGF2α, pH 7.5, fluorescence Ex/Em=340/450; read-out: IC50
pIC50: −log10 of the molar value.
Value kind: pIC50

Worked cases, answers included:
Cc1nc2c3ccc(C(=O)N4CCCCC4)cc3nc(-c3ccc4c(c3)CN(C)C4=O)n2n1	> 8.70
Cn1cc(-c2nc3cc(C(=O)N4CCCCC4)ccc3n3ccnc23)ccc1=O	7.70 to 8.00
O=C(c1ccc2c(c1)nc(-c1ccc3c(c1)CCN3)n1ccnc21)N1CCCCC1	8.30 to 8.70

The record that follows has no pIC50 shown yet.
Query: Endpoint output: pIC50 of Nc1ncc(-c2nc3cc(C(=O)N4CCCCC4)ccc3c3nccn23)cn1 . Value?
Result: > 8.70
